System: Human immunodeficiency virus 1
METHOD NOTES: Antiviral activity against HIV1 3B infected in human MT4 cells assessed as inhibition of virus-induced cytopathic effect after 4 days by MTT assay
Type: functional, organism-based
EXPERIMENTAL CONDITIONS: Human immunodeficiency virus 1, 3B, MT4, 96 h
pIC50: −log10 of the molar value.
Kindly return true (1) if reported pIC50 is no lower than 4; return false (0) if it is lower.

1) COc1ccc(-c2cc(=O)c3cc(NC(C)=O)ccc3o2)cc1 ... false (0)

Would you say COc1cccc(-c2oc3ccc(NC(C)=O)cc3c(=O)c2OC)c1 shows pIC50 at minimum 4? false (0)

Would you say CC(=O)Nc1ccc(O)c(C(=O)/C=C/c2ccccc2F)c1 shows pIC50 at minimum 4? true (1)

Would you say Nc1ccc2oc(-c3ccccc3F)cc(=O)c2c1 shows pIC50 at minimum 4? false (0)

Would you say COc1c(-c2cccc(F)c2)oc2ccc(NC(C)=O)cc2c1=O shows pIC50 at minimum 4? false (0)

Would you say COc1c(-c2cccc(C(F)(F)F)c2)oc2ccc(NC(C)=O)cc2c1=O shows pIC50 at minimum 4? false (0)

Would you say COc1cccc(-c2oc3ccc(NC(C)=O)cc3c(=O)c2O)c1 shows pIC50 at minimum 4? true (1)

Would you say Nc1ccc2oc(-c3ccc(C(F)(F)F)cc3)cc(=O)c2c1 shows pIC50 at minimum 4? false (0)

Would you say COc1c(-c2ccc(F)cc2)oc2ccc(N)cc2c1=O shows pIC50 at minimum 4? false (0)

Would you say COc1cccc(/C=C/C(=O)c2cc(NC(C)=O)ccc2O)c1 shows pIC50 at minimum 4? true (1)

Would you say COc1c(-c2ccccc2)oc2ccc(NC(C)=O)cc2c1=O shows pIC50 at minimum 4? false (0)

Would you say Nc1ccc2oc(-c3ccccc3)cc(=O)c2c1 shows pIC50 at minimum 4? false (0)

Would you say Nc1ccc2oc(-c3cccc(C(F)(F)F)c3)c(O)c(=O)c2c1 shows pIC50 at minimum 4? true (1)

Would you say Nc1ccc2oc(-c3ccc(F)cc3)cc(=O)c2c1 shows pIC50 at minimum 4? false (0)

Would you say COc1cccc(-c2cc(=O)c3cc(NC(C)=O)ccc3o2)c1 shows pIC50 at minimum 4? false (0)

Would you say CC(=O)Nc1ccc2oc(-c3ccccc3F)cc(=O)c2c1 shows pIC50 at minimum 4? false (0)
